assayed_target: human DCN1 (residues 58–259), N-terminal His6 tag (human, UniProt Q96GG9 58-259)
Sequence (Q96GG9 58-259): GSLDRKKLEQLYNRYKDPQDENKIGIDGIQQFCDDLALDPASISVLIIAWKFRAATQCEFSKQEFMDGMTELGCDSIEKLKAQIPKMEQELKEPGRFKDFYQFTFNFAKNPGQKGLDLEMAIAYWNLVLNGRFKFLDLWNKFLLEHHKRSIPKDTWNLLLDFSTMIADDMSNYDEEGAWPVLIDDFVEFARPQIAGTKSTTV
procedure_details: FP
Where no end group is shown, it is not given here. [ ]: non-standard residue; d: D form. 6‑Cl‑benzothiazol‑2‑yl side chain = not defined here; Phe(3-Cl) = N[C@@H](Cc1cccc(Cl)c1)C(=O)O; Phe(2-F) = N[C@@H](Cc1ccccc1F)C(=O)O
Reported pKi values follow for various binders
// pKi: -log10(molar conc.)

Example entries begin here.
MIKLFSLK [UBC12 peptide 5]
5.04
[Phe(2-F)]IKL [analog of 11 with o-F substitution of the phenyl]
3.90
FIKL [compound 11 (tetrapeptide 9 with Met1 replaced by phenylalanine)]
4.39
[Phe(3-Cl)]IKL [compound 14 (11 with Cl at the meta position of the phenyl ring)]
4.35
[6‑Cl‑benzothiazol‑2‑yl side chain]IKL (not fully specified; reading uncertain) [compound 26 (24 with 6-Cl on the benzothiazol-2-yl)]
7.47

Let us examine a further case.
GET /value?item= MIKLFSL [UBC12 seven-residue peptide (6)] &field=pKi returns 4.55
